- System: BDF1 mice, P388 leukemia ip, median survival T/C
- experimental_protocol: NCI In Vivo Anticancer Drug Screen. Data for tumor model P388 Leukemia (intraperitoneal) in B6D2F1 (BDF1) mice
- experimental_conditions: endpoint: median survival time; dose: 200.0 mg/kg/injection; schedule: Q01DX009 (ip); vehicle: saline
Toxic doses and inconclusive results are not listed. Rule for the calls: active = survival T/C of 150% or more; inactive = T/C below 125% in these data.
Classes to choose from: active, inactive

> print(dat)
                                   compound     label
1                   COc1ccc(C(C)=O)c(OC)c1C  inactive
2                             NCCS(=O)(=O)O  inactive
3  CCN(CC)Cc1cc(Nc2c3ccc([N+](=O)[O-])cc3nc3ccc(OC)cc23)ccc1O  inactive
4                CC(=O)CC(=O)Nc1nc2ccccc2s1  inactive
5  O=[N+]([O-])c1ccc(N/N=C\c2ccc3ccccc3n2)cc1  inactive
6                O=C(c1cc(Cl)cc(Cl)c1)N1CC1  inactive

Then there is this compound:
Any idea what this test logged for `CC[N+]1(CC)CC[N+]2(CC1)CC[N+]1(CC[N+](CC)(CC)CC1)CC2` ?
inactive

----------
- Tested on: BDF1 mice, P388 leukemia ip, median survival T/C
- experimental_protocol: NCI In Vivo Anticancer Drug Screen. Data for tumor model P388 Leukemia (intraperitoneal) in B6D2F1 (BDF1) mice
- experimental_conditions: endpoint: median survival time; dose: 400.0 mg/kg/injection; schedule: Q01DX001 (ip); vehicle: saline with Tween-80; higher = longer survival
- Experimental: The antitumor activity of compounds was measured in mice bearing transplantable tumors. Survival or tumor size were measured and the results are expressed as the measurement made in the treated group (T) divided by the measurement made in the vehicle treated control group (C). The tumor model used in this assay is P388 Leukemia (intraperitoneal) in B6D2F1 (BDF1) mice
Toxic doses and inconclusive results are not listed.
property_measured: T/C

Worked set:
> print(dat)
                                  molecule  reported.measurement
1          O=S1(=O)CC(S(=O)(=O)c2ccccc2)C1      100 % of control
2  COc1cc(/C=C\C(=O)c2ccc(F)cc2)cc(OC)c1OC      100 % of control
3     CCCCc1cc(O)c2c(c1O)C(=O)c1ccccc1C2=O       90 % of control
4          CC1C=NNC1=O (centres undefined)      100 % of control
5                     CCC(=O)Nc1cccc(Cl)c1       90 % of control

Looking up CC(C)(O)c1ccccc1[S+]1OC(C)(C)c2ccccc21 (centres undefined) , I see its T/C listed as 118 % of control

Input `O/N=C\c1c(O)ccc2ccccc12` . Output T/C: 106 % of control

Entry `Cc1ccc(C)c(NC(=O)c2ccc(Cl)cc2)c1` ; T/C = 100 % of control

Record `CCOC(=O)C1=C(C)NC(C)=C(C(=O)OCC)C1` , field T/C: 100 % of control

The measured T/C associated with `C/C=C/CCCCCCCC` reads 119 % of control

----------
- Tested on: BDF1 mice, P388 leukemia ip, median survival T/C
- experimental_protocol: NCI In Vivo Anticancer Drug Screen. Data for tumor model P388 Leukemia (intraperitoneal) in B6D2F1 (BDF1) mice
- experimental_conditions: endpoint: median survival time; dose: 25.0 mg/kg/injection; schedule: Q04DX003 (ip); vehicle: Klucel (hydroxypropylcellulose) (HPC); higher = longer survival
Toxic doses and inconclusive results are not listed.
Reported T/C is given for each of the following molecules.

Worked cases, T/C given:
> print(dat)
                           structure.smiles  reported.measurement
1             N#Cc1ccc(NC(=O)N(CCCl)N=O)cc1      109 % of control
2               Cn1c2nc3ccccc3c-2nc2ccccc21       98 % of control
3  COC(=O)c1cc([N+](=O)[O-])c(Cl)c([N+](=O)[O-])c1      100 % of control
4          c1ccc(OCc2ccc(COc3ccccc3)cc2)cc1      100 % of control

`O=C(CCl)Nc1cc(Cl)ccc1N1CCCC1` has a reported T/C of 104 % of control

The measured T/C associated with `[N-]=[N+]=C1C(=O)NN=C1c1ccccc1` reads 104 % of control

Form: molecule = `O=[N+]([O-])/C=C/c1ccc([N+](=O)[O-])cc1Cl` ; T/C = 115 % of control

The recorded T/C for entry `O=C(c1ccccc1)C1CCCCC1` equals 109 % of control

Noted for `NNC(=O)OC12CC3CC(CC(C3)C1)C2` : its T/C reads 105 % of control
